# Test system: Vero E6 infected with SARS-CoV-2
# assay.method.text: morphology score (similarity to uninfected cells); higher = more like uninfected cells
# test.settings: 24 h

| compound | morphology score |
| --- | --- |
| Oc1c(Cl)cc(Cl)cc1Sc1cc(Cl)cc(Cl)c1O [bithionol] (10 µM) | -0.096 |
| NC(=O)OCCCc1ccccc1 [phenprobamate] (10 µM) | 0.0438 |
| CCNC(=O)Nc1ccc(-c2nc3c(c(N4CCOC[C@@H]4C)n2)CCN(C2COC2)C3)cc1 (0.833333 µM) | 0.13 |
| C[C@@H](NCc1cc(Br)cc2nc(O)c(O)nc12)P(=O)(O)O (10 µM) | 0.0389 |
| CN(C)CCOc1cc(-c2cn[nH]c2)ccc1NC(=O)C1COc2ccccc2O1 (centres undefined) (0.833333 µM) | 0.294 |
| Cc1cc(C(=CNc2ccc(Cl)cc2)C(=O)Nc2ccc(Cl)cc2)on1 (10 µM) | 0.005 |
| CCCCOc1ccc(C(=O)Nc2ccc(F)cc2F)cc1 (10 µM) | 0.18 |
| CNC(=O)c1cc(COc2nnc(Nc3ccc(Cl)cc3)c3ccoc23)ccn1 [telatinib] (10 µM) | 0.0611 |
| O=c1ccn([C@@H]2O[C@H](CO)[C@@H](O)[C@H]2O)c(=O)[nH]1 [uridine] (10 µM) | 0.318 |

---

# Tested on: Vero E6 infected with SARS-CoV-2
# assay.method.text: inhibition of SARS-CoV-2 cytopathic effect; higher = more antiviral protection, active = above 15
# test.settings: 10000 nM; 48 h
Examples of molecules with documented inhibition of SARS-CoV-2 cytopathic effect follow.
test.readout: inhibition of SARS-CoV-2 cytopathic effect (%)

| molecule | numeric.result |
| --- | --- |
| Cc1cc2nc3c(=O)[nH]c(=O)nc-3n(C)c2cc1C=O | 1.18 |
| O=C1CN=C(c2cccc(Br)c2)c2oc3ccccc3c2N1 | 0.75 |
| C[C@]12CC[C@H]3[C@@H](CCC4=CC(=O)CC[C@@H]43)[C@@H]1CC[C@@H]2O | -0.94 |
| Cc1c(N)cccc1Cn1ccc(OCCc2cccs2)cc1=O | -2.07 |
| COc1cccc(CCc2ccccc2OCC(CN(C)C)OC(=O)CCC(=O)O)c1 (stereo not drawn) [sarpogrelate] | -1.72 |
| COc1cc2c(cc1OC)-c1cc3nc4ccccc4nc3n1C(C)(C)C2 | -7.6 |
| O=c1ccc2ccccc2o1 | -0.9 |
| CC(=O)Nc1ccc(S(=O)(=O)Nc2ccc([N+](=O)[O-])cc2)cc1 | -4.49 |
| COC1=C2C[C@@H](C)C[C@H](OC)[C@H](O)[C@@H](C)/C=C(\C)[C@H](OC(N)=O)[C@@H](OC)/C=C\C=C(/C)C(=O)NC(=CC1=O)C2=O | -4.4 |
| CC(C)c1nc(N(C)S(C)(=O)=O)nc(-c2ccc(F)cc2)c1/C=C/[C@@H](O)C[C@@H](O)CC(=O)O | -2.75 |
| O=C(O)CCCNC(=O)c1cccnc1 | -1.86 |
| CN1CCCN=C1COC(=O)C(O)(c1ccccc1)C1CCCCC1 (stereo not drawn) | -1.14 |
| CC(=O)N1CCN(C)CC1 | -0.21 |
| O=C1[C@@H]2[C@H]3CC[C@H](C3)[C@@H]2C(=O)N1C[C@@H]1CCCC[C@H]1CN1CCN(c2nsc3ccccc23)CC1 | -6.2 |
| Clc1cccc(Nc2nnc(-c3ccccc3)c3ccccc23)c1 | 2.92 |
| CCCCCCCCCCCCc1ccc(S(=O)(=O)Nc2nncs2)cc1 | -0.65 |
| COC(=O)[C@@]12OC[C@]34[C@H]([C@@H](O)[C@@H]1O)[C@@]1(C)CC(=O)C(O)=C(C)[C@@H]1C[C@H]3OC(=O)[C@H](OC(=O)/C=C(\C)C(C)C)[C@@H]24 [bruceantin] | -16.1 |
| Cc1nc2ccc(Oc3ccc(F)cc3)cc2c(=O)n1C[C@H]1CCCN(C(C)C)C1 | -5.71 |
